test system: Staphylococcus aureus; assay: Antibacterial activity against inducible macrolide-lincosamide-streptogramin B-resistant Staphylococcus aureus B0538 by agar microdilution method; format: functional
Each entry below lists one item and its recorded MIC value.
Lab book: enter the figure in µg/mL, no units written.

// solved cases for MIC follow
Molecule: CC[C@H]1OC(=O)[C@H](C)C(=O)[C@H](C)[C@@H](O[C@@H]2O[C@H](C)C[C@H](N(C)C)[C@H]2O)[C@](C)(OC)C[C@@H](C)C(=O)[C@H](C)[C@H]2N(CCCCn3cnc(-c4cccnc4)c3)C(=O)O[C@]12C
MIC (µg/mL): 0.5
//
Molecule: CC[C@H]1OC(=O)[C@H](C)C(=O)[C@H](C)[C@@H](O[C@@H]2O[C@H](C)C[C@H](N(C)C)[C@H]2O)[C@](C)(OCC(O)CNCCNc2cnc3ccccc3c2)C[C@@H](C)NC(=O)[C@H](C)[C@@H](O)[C@]1(C)O (mixture of isomers)
MIC (µg/mL): 1

Let's switch to this molecule now.
Request: Returns the measured MIC for the input molecule. Input: CC[C@H]1OC(=O)[C@H](C)C(=O)[C@H](C)[C@@H](O[C@@H]2O[C@H](C)C[C@H](N(C)C)[C@H]2O)[C@](C)(OCC(O)CN2CCN(c3cccc(C(F)(F)F)c3)CC2)C[C@@H](C)NC(=O)[C@H](C)[C@@H](O)[C@]1(C)O (mixture of isomers)
Result: 4

---

test system: Staphylococcus aureus; experiment: Antibacterial activity against erythromycin A-susceptible Staphylococcus aureus B0329 by agar microdilution method
Quantity Measured: MIC (µg/mL)
Lab book: enter the figure in µg/mL, no units written.

Request: Returns the measured MIC for the input compound. Input: CC[C@H]1OC(=O)[C@H](C)C(=O)[C@H](C)[C@@H](O[C@@H]2O[C@H](C)C[C@H](N(C)C)[C@H]2O)[C@](C)(OCC(O)CNCCCc2cccnc2)C[C@@H](C)NC(=O)[C@H](C)[C@@H](O)[C@]1(C)O (some centres not stated)
Result: 2

---

Each entry below lists one item and its recorded MIC value.
tested on: Streptococcus pyogenes; experiment: Antibacterial activity against erythromycin A-susceptible Streptococcus pyogenes B0542 by agar microdilution method

// solved cases for MIC follow
Compound: CC[C@H]1OC(=O)[C@H](C)C(=O)[C@H](C)[C@@H](O[C@@H]2O[C@H](C)C[C@H](N(C)C)[C@H]2O)[C@](C)(OC)C[C@@H](C)C(=O)[C@H](C)[C@H]2N(CCCCn3cnc(-c4cccnc4)c3)C(=O)O[C@]12C [TELITHROMYCIN]
Tested System: Streptococcus pyogenes
MIC: ≤ 0.06 µg/mL
//
Compound: CC[C@H]1OC(=O)[C@H](C)C(=O)[C@H](C)[C@@H](O[C@@H]2O[C@H](C)C[C@H](N(C)C)[C@H]2O)[C@](C)(OCC(O)CN2CCN(c3ccc4ncccc4c3)CC2)C[C@@H](C)NC(=O)[C@H](C)[C@@H](O)[C@]1(C)O (some centres undefined)
Tested System: Streptococcus pyogenes
MIC: ≤ 0.125 µg/mL
//
Compound: CC[C@H]1OC(=O)[C@H](C)C(=O)[C@H](C)[C@@H](O[C@@H]2O[C@H](C)C[C@H](N(C)C)[C@H]2O)[C@](C)(OCC(O)CN2CCN(c3cccc(C(F)(F)F)c3)CC2)C[C@@H](C)NC(=O)[C@H](C)[C@@H](O)[C@]1(C)O (mixture of isomers)
Tested System: Streptococcus pyogenes
MIC: ≤ 0.125 µg/mL

Let's switch to this compound now.
Request: What value of MIC on Streptococcus pyogenes does CC[C@H]1OC(=O)[C@H](C)C(=O)[C@H](C)[C@@H](O[C@@H]2O[C@H](C)C[C@H](N(C)C)[C@H]2O)[C@](C)(OCC(O)CN[C@H](C)Cc2ccc(OC)cc2)C[C@@H](C)NC(=O)[C@H](C)[C@@H](O)[C@]1(C)O (mixture of isomers) have?
Result: 0.5 µg/mL
